All figures here come from paper PMC8781304.

# Tested on: Candida albicans ATCC 10231
# experimental details: MIC and MBC/MFC by broth microdilution
# Type: cell-based
# condition notes: C. albicans ATCC 10231
endpoint: MBC/MFC

Cc1cc(C)[n+]2n1C(N)=[S+][Ru-]2[Cl].Cc1ccc(C(C)C)cc1.F[P-](F)(F)(F)(F)F [Compound 3a]; >1000 µg/mL
OC(Cn1cncn1)(Cn1cncn1)c1ccc(F)cc1F [Flu, fluconazole, reference compound]; >16 µg/mL
F[P-](F)(F)(F)(F)F.[NH4+] [NH4PF6, Ammonium hexafluorophosphate]; >1000 µg/mL
CCc1cc(CC)[n+]2n1C(N)=[S+][Ru-]2[Cl].Cc1ccc(C(C)C)cc1.F[P-](F)(F)(F)(F)F [Compound 3b]; >1000 µg/mL

* * *

# Tested on: S. aureus ATCC 29213
# experimental details: Synergy with oxacillin and vancomycin, partial checkerboard broth microdilution
# Format: cell-based, Staphylococcus aureus
# condition notes: S. aureus ATCC 29213; MIC antibiotic in combination/MIC antibiotic alone
Reported FIC (Van) values for the following molecules.
endpoint: FIC (Van)

Cc1cc(C)[n+]2n1C(N)=[S+][Ru-]2[Cl].Cc1ccc(C(C)C)cc1.F[P-](F)(F)(F)(F)F [Compound 3a]; 1
CCc1cc(CC)n(C(N)=S)n1.Cc1ccc(C(C)C)cc1.[Cl-].[Cl][Ru+] [Compound 2b]; 0.5
F[P-](F)(F)(F)(F)F.[NH4+] [NH4PF6, Ammonium hexafluorophosphate]; 1
Cc1ccc(C(C)C)cc1.NC(=S)n1nc(-c2ccccc2)cc1O.[Cl-].[Cl][Ru+] [Compound 2c]; 0.5
Cc1ccc(C(C)C)cc1.Cc1ccc(C(C)C)cc1.[Cl][Ru][Cl].[Cl][Ru][Cl] [Dimer, dichloro(p-cymene)ruthenium(II) dimer]; 1
CCc1cc(CC)[n+]2n1C(N)=[S+][Ru-]2[Cl].Cc1ccc(C(C)C)cc1.F[P-](F)(F)(F)(F)F [Compound 3b]; 0.25
Cc1cc(C)n(C(N)=S)n1.Cc1ccc(C(C)C)cc1.[Cl-].[Cl][Ru+] [Compound 2a]; 1
Cc1cc(O)n(C(N)=S)n1.Cc1ccc(C(C)C)cc1.[Cl-].[Cl][Ru+] [Compound 2d]; 1

* * *

# Tested on: Enterococcus faecalis ATCC 29212
# experimental details: MIC and MBC/MFC by broth microdilution
# Assay type: cell-based
# condition notes: E. faecalis ATCC 29212
# From the text: Reference strains of bacteria and fungi: Staphylococcus aureus ATCC 29213, Staphylococcus epidermidis ATCC 12228, Enterococcus faecalis ATCC 29212, Pseudomonas aeruginosa ATCC 25619, Proteus vulgaris ATCC 8427, and Candida albicans ATCC 10231 (Manassas, VA, USA) were used to screen the antimicrobial activity of the arene-ruthenium(II) complexes 3a-3d, NH4PF6 and selected antibiotics. […]
endpoint: MBC/MFC (µg/mL)

CCc1cc(CC)[n+]2n1C(N)=[S+][Ru-]2[Cl].Cc1ccc(C(C)C)cc1.F[P-](F)(F)(F)(F)F; 125
Cc1cc(C)[n+]2n1C(N)=[S+][Ru-]2[Cl].Cc1ccc(C(C)C)cc1.F[P-](F)(F)(F)(F)F; 125

* * *

# System: Enterococcus faecalis ATCC 29212
# experimental details: MIC and MBC/MFC by broth microdilution
# Type: cell-based
# condition notes: E. faecalis ATCC 29212
Reported MIC values for the following compounds.
endpoint: MIC (µg/mL)

Cc1cc(C)[n+]2n1C(N)=[S+][Ru-]2[Cl].Cc1ccc(C(C)C)cc1.F[P-](F)(F)(F)(F)F [Compound 3a]; 125
CCc1cc(CC)[n+]2n1C(N)=[S+][Ru-]2[Cl].Cc1ccc(C(C)C)cc1.F[P-](F)(F)(F)(F)F [Compound 3b]; 62.5

* * *

Reported FIC (Van) values for the following compounds.
# Test system: S. epidermidis ATCC 12228
# experimental details: Synergy with oxacillin and vancomycin, partial checkerboard broth microdilution
# Assay type: cell-based, Staphylococcus epidermidis
# condition notes: S. epidermidis ATCC 12228; MIC antibiotic in combination/MIC antibiotic alone
endpoint: FIC (Van)

Cc1cc(O)n(C(N)=S)n1.Cc1ccc(C(C)C)cc1.[Cl-].[Cl][Ru+] [Compound 2d]; 1
F[P-](F)(F)(F)(F)F.[NH4+] [NH4PF6, Ammonium hexafluorophosphate]; 2
CCc1cc(CC)[n+]2n1C(N)=[S+][Ru-]2[Cl].Cc1ccc(C(C)C)cc1.F[P-](F)(F)(F)(F)F [Compound 3b]; 0.03
Cc1cc(C)[n+]2n1C(N)=[S+][Ru-]2[Cl].Cc1ccc(C(C)C)cc1.F[P-](F)(F)(F)(F)F [Compound 3a]; 0.03
Cc1ccc(C(C)C)cc1.Cc1ccc(C(C)C)cc1.[Cl][Ru][Cl].[Cl][Ru][Cl] [Dimer, dichloro(p-cymene)ruthenium(II) dimer]; 2
CCc1cc(CC)n(C(N)=S)n1.Cc1ccc(C(C)C)cc1.[Cl-].[Cl][Ru+] [Compound 2b]; 0.03
Cc1ccc(C(C)C)cc1.NC(=S)n1nc(-c2ccccc2)cc1O.[Cl-].[Cl][Ru+] [Compound 2c]; 1
Cc1cc(C)n(C(N)=S)n1.Cc1ccc(C(C)C)cc1.[Cl-].[Cl][Ru+] [Compound 2a]; 0.03
